src = BindingDB's records for doi:10.1016/j.bmcl.2010.01.042

recorded_endpoint: IC50

Ask: Form entry - test system: Insulin-like growth factor 1 receptor (Homo sapiens); read-out: IC50; compound: O=C(Nc1ccc(F)cc1F)c1cccnc1Nc1ccc(Oc2ccnc3[nH]ccc23)c(F)c1
Result: > 50 µM
